Values from patent US20240116985A1

Biological target: full-length beta-Catenin (Uniprot ID P35222) (Homo sapiens (Human)) (UniProt P35222)
Sequence (P35222 whole entry): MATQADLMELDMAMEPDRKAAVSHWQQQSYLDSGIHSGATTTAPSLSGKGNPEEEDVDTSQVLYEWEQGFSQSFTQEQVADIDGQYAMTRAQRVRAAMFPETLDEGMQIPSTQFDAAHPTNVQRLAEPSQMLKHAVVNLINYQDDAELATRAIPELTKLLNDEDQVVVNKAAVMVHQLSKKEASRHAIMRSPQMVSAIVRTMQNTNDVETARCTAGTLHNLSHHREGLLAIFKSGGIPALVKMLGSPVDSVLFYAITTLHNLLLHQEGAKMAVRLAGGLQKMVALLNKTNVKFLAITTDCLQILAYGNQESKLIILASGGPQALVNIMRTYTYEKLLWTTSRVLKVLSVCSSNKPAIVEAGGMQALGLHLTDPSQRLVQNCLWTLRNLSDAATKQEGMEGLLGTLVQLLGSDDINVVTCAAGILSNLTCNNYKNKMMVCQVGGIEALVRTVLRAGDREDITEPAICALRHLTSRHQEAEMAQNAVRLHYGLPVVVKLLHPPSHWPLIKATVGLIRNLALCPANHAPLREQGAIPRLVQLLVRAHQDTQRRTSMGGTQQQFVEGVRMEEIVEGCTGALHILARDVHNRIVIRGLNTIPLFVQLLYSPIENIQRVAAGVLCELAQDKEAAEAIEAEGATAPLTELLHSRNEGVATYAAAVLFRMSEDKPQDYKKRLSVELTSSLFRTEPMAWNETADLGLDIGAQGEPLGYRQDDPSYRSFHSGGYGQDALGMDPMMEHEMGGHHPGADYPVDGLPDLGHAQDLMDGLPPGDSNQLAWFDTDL
Test: fluorescence polarization competition; peptide titrated against 10 nM full-length beta-catenin + 10 nM 5FAM-TCF4(10-53) probe
Starred links: 1 amine or outer side, 2 acyl side, 3 side chain; linkers in the order of their positions; H or OH if unused. Positions of bridges follow the written chain, without caps; N, C: chain ends. Non-standard residues stand in square brackets, D forms with d. Primed or numbered codes have the meaning given here. *: point of attachment. Tf = trifluoromethylsulfonyl on Dap side-chain N ([Tf]Dap = (S)-2-amino-3-((trifluoromethyl)sulfonamido)propanoic acid), O=S(=O)(C(F)(F)F)*; B5(4) = 2,2-bis(4-pentenyl)glycine = 2-amino-2-(pent-4-en-1-yl)hept-6-enoic acid (stitching residue), C=CCCCC(CCCC=C)(N[*:1])C(=O)[*:2]; TfeGA = (S)-2-amino-3-((carboxymethyl)(2,2,2-trifluoroethyl)amino)propanoic acid, O=C([C@H](CN(CC(=O)[*:3])CC(F)(F)F)N[*:1])[*:2]; B5 = 2-amino-2-(pent-4-en-1-yl)hept-6-enoic acid, C=CCCCC(CCCC=C)(N[*:1])C(=O)[*:2]; Bta = N[C@@H](Cc1csc2ccccc12)C(=O)O; αAllylPro = C=CC[C@@]1(C(=O)O)CCCN1; Aad = N[C@@H](CCCC(=O)O)C(=O)O; Cha = N[C@@H](CC1CCCCC1)C(=O)O; Cit = NC(=O)NCCC[C@H](N)C(=O)O; S8 = C=CCCCCCC[C@](C)(N)C(=O)O; Dap = NC[C@H](N)C(=O)O
Measure name: EC50 (nM)

The cases that follow already have their EC50 on record.
Binder	Result units	EC50
Ac-[αAllylPro]DL[B5]DEAAF[Cit][S8]F[Bta]H-NH2 (staple 1-4, 4-11) [I-616]	nM	108
Ac-[αAllylPro]DL[B5(4)]DEAAF[Cit][S8]F[Bta]-NH2 (staple 1-4, 4-11) [I-629]	nM	685
Ac-[αAllylPro]DI[B5(4)][Dap](Tf)EAAFQ[S8]F[Bta]Q-NH2 (staple 1-4, 4-11) [I-631]	nM	5000
Ac-[αAllylPro]D[Cha][B5(4)]DEAAFN[S8]F[Bta]Q-NH2 (staple 1-4, 4-11; also: earlier-eluting staple isomer) [I-619]	nM	44
Ac-[αAllylPro]D[Cha][B5(4)]DEAAFN[S8]F[Bta]-NH2 (staple 1-4, 4-11) [I-627]	nM	338
Ac-[αAllylPro]DI[B5]D[TfeGA]AAFQ[S8]F[Bta]Q-NH2 (staple 1-4, 4-11; also: later-eluting staple isomer) [I-611]	nM	55

I = Ac-[αAllylPro][Dap](Tf)I[B5(4)]DEAAFQ[S8]F[Bta]Q-NH2 (staple 1-4, 4-11) [I-632]
II = Ac-[αAllylPro]DL[B5(4)]DEAAF[Cit][S8]F[Bta]-NH2 (staple 1-4, 4-11) [I-628]
IN: Recorded EC50 values differ for I and II ; which one is higher? Write down the label of the entry you select.
OUT: I
(I: 5000 nM, II: 713 nM)

P = Ac-[αAllylPro]DI[B5]D[Aad]AAFQ[S8]F[Bta]Q-NH2 (staple 1-4, 4-11) [I-612]
Q = Ac-[αAllylPro]DL[B5(4)]DEAAFN[S8]F[Bta]-NH2 (staple 1-4, 4-11; also: later-eluting staple isomer) [I-625]
IN: Please compare: P and Q . Report which one has the smaller EC50 value. Write down the label of the entry you select.
OUT: P
(P: 64 nM, Q: 119 nM)
